# assayed_system: calmodulin (CaM) (Homo sapiens)
# experimental_protocol: Isothermal titration calorimetry of CaM binding to NaV IG peptides
# conditions: SD
measured_metric: pKd
Answers are plain numbers, as −log10 of the molar value.

Query :: // returns reported pKd for input H-GPGSQDIFMTEEQKKYYNAMKKLGSKKPQKPIPRPLNKIQGIVFDFVTQQA-OH [NaV 1.6]
Result :: 7.09

Hello, the source for this data is paper PMC5932218, in case you need it.
